Reference for the values: patent US9481676B2

Biological target: human recombinant serotonin (5-Hydroxytryptamine) 5-HT2C receptor (Homo sapiens)
Construct: expressed in transfected cells; host or cells: CHO-K1 cells
Sequence (P28335 33-458): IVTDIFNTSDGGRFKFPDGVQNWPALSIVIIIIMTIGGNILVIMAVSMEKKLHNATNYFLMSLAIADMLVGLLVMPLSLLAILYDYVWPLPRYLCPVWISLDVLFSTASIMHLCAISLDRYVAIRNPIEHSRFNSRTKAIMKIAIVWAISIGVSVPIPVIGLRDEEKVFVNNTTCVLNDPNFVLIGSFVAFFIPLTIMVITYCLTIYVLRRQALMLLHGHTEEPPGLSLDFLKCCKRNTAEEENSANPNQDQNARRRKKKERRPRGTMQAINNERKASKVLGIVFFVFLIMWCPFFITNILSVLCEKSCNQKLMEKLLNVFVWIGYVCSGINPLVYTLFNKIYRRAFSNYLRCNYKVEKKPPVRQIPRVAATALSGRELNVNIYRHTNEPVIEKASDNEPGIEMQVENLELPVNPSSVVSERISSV
Assay: Serotonin 5-HT2C radioligand binding ([3H]Mesulergine)
Settings: compound at 1 μM; read-out: Serotonin (1 μM) 5-HT2C, percent inhibition of specific binding
Protocol: To evaluate in radioligand binding assays the activity of compounds of the invention, human recombinant serotonin (5-Hydroxytryptamine) 5-HT2C receptor expressed in Chinese hamster ovary (CHO-K1) cells (Wolf, W. A. and Schutz, J. S., J. Neurochem. 69:1449, 1997) in a modified Tris-HCl buffer (50 mM Tris-HCl, pH 7.4, 0.1% Ascorbic Acid, 10 μM Pargyline) was used. […] Receptor proteins were filtered and washed, the filters were then counted to determine [^3H]Mesulergine specifically bound. […]
assay.endpoint: inhibition at 1 µM (%)
Give bare numbers, in %.

Guide cases for inhibition at 1 µM, answers given:
* Cc1ccc2c(c1)c1c(n2CC(=O)OC2CCCC2)CCN(C)CC1 | 32
* CN1CCc2c(n(CC(O)c3ccncc3)c3ccc(Cl)cc23)CC1 (stereo not drawn) | 101

Please examine the following record next.
Measured inhibition at 1 µM, `C/C(=C\n1c2c(c3cc(C)ccc31)CCN(C)CC2)c1ccc(Cl)cc1Cl` : 100
